System: MOLM-13
Experimental protocol: cell viability (% survival relative to DMSO control, bortezomib = 0%); higher = less cytotoxic
Assay context: 10 nM; 72 h
Reported endpoint: cell viability (%)
Give your result in % as a bare value.

Below, 3 compounds whose answers are already recorded.
[
  {
    "Compound": "C[C@]12C=CC(=O)C=C1CC[C@@H]1[C@@H]2[C@@H](O)C[C@@]2(C)[C@H]1CC[C@]2(O)C(=O)CO",
    "Target of assay": "MOLM-13",
    "Unit abbreviation": "%",
    "cell viability": 96
  },
  {
    "Compound": "CC[C@H](C)[C@H](N)C(=O)N1CCSC1",
    "Target of assay": "MOLM-13",
    "Unit abbreviation": "%",
    "cell viability": 87.8
  },
  {
    "Compound": "CCCCCN(C)CCC(O)(P(=O)(O)O)P(=O)(O)O [Ibandronate]",
    "Target of assay": "MOLM-13",
    "Unit abbreviation": "%",
    "cell viability": 110
  }
]

// assay MOLM-13, entry CN(Cc1cnc2nc(N)nc(N)c2n1)c1ccc(C(=O)N[C@@H](CCC(=O)O)C(=O)O)cc1 [Methotrexate] , cell viability value = 33.1

// assay MOLM-13, entry O=C(O)CC[N+](=O)[O-] , cell viability value = 122

// assay MOLM-13, entry C=CC(=O)c1ccc(O)cc1 , cell viability value = 79.4

// assay MOLM-13, entry Cn1cc(-c2ccncc2)c(-c2ccc(OCc3ccc4ccccc4n3)cc2)n1 , cell viability value = 99.5

// assay MOLM-13, entry CC(C)CC(=O)N[C@H](C(=O)N[C@H](C(=O)N[C@@H](CC(C)C)[C@@H](O)CC(=O)N[C@@H](C)C(=O)N[C@@H](CC(C)C)[C@@H](O)CC(=O)O)C(C)C)C(C)C , cell viability value = 93.8

---

System: myeloid leukemia patient primary cells Pat.12
Experimental protocol: cell viability (% survival relative to DMSO control); higher = less cytotoxic
Assay context: 10000 nM; 72 h
Reported cell viability is given for each of the following compounds.
Give your result in % as a bare value.

[
  {
    "Compound string": "CO[C@H]1C[C@@H]2CC[C@@H](C)[C@@](O)(O2)C(=O)C(=O)N2CCCC[C@H]2C(=O)O[C@H]([C@H](C)C[C@@H]2CC[C@@H](OCCO)[C@H](OC)C2)CC(=O)[C@H](C)/C=C(\\C)[C@@H](O)[C@@H](OC)C(=O)[C@H](C)C[C@H](C)/C=C/C=C/C=C/1C",
    "cell viability / %": 99
  },
  {
    "Compound string": "CC(C)(C)c1ccc(S(=O)(=O)NCc2ccc(C(=O)Nc3cccnc3)cc2)cc1",
    "cell viability / %": 4.47
  },
  {
    "Compound string": "O=C(/C=C/c1ccc(O)c(O)c1)OCCc1ccccc1",
    "cell viability / %": 34.5
  },
  {
    "Compound string": "C[C@]12C=CC(=O)C=C1CC[C@@H]1[C@@H]2[C@@H](O)C[C@@]2(C)[C@H]1CC[C@]2(O)C(=O)CO",
    "cell viability / %": 79
  }
]

// field: cell viability; key: Cc1c2c(=O)n(-c3ccccc3Cl)[nH]c2cc(=O)n1Cc1ccccn1 ; value = 92.2

// field: cell viability; key: Cc1cc2c(C(C)C)c(O)c(O)c(C=O)c2c(O)c1-c1c(C)cc2c(C(C)C)c(O)c(O)c(C=O)c2c1O ; value = 50.5

// field: cell viability; key: O=C(O)CC[N+](=O)[O-] ; value = 48.2

---

Test system: myeloid leukemia patient primary cells Pat.10
Experimental protocol: area under dose-response curve (viability, 1 nM-10 uM) (fraction (0-1)); higher = more sensitive
Assay context: 72 h
Returns one of Met or Not met; Met when area under dose-response curve is >= 0.2.

Here are 5 molecules together with their reported answers.
[
  {
    "Compound string": "CN(CCOc1ccc(Cc2sc(O)nc2O)cc1)c1ccccn1",
    "Target of assay": "myeloid leukemia patient primary cells Pat.10",
    "Category": "Not met"
  },
  {
    "Compound string": "CN1CCN(CCCN2c3ccccc3Sc3ccc(C(F)(F)F)cc32)CC1",
    "Target of assay": "myeloid leukemia patient primary cells Pat.10",
    "Category": "Met"
  },
  {
    "Compound string": "O=C(/C=C/c1ccc(O)c(O)c1)OCCc1ccccc1",
    "Target of assay": "myeloid leukemia patient primary cells Pat.10",
    "Category": "Met"
  },
  {
    "Compound string": "Cc1cc2c(C(C)C)c(O)c(O)c(C=O)c2c(O)c1-c1c(C)cc2c(C(C)C)c(O)c(O)c(C=O)c2c1O",
    "Target of assay": "myeloid leukemia patient primary cells Pat.10",
    "Category": "Met"
  },
  {
    "Compound string": "O=c1cc(N2CCOCC2)oc2c(-c3ccccc3)cccc12",
    "Target of assay": "myeloid leukemia patient primary cells Pat.10",
    "Category": "Met"
  }
]

As a next step, examine the molecule that follows.
[Q] Reported area under dose-response curve reaches at least 0.2 for Cc1[nH]nc(C(F)(F)F)c1Cc1sc2c(c1C(=O)N1C[C@](C)(O)CO1)c(=O)n(C)c(=O)n2C(C)C ?
[A] Not met

---

Reported area under dose-response curve is given for each of the following compounds.
Test system: myeloid leukemia patient primary cells Pat.14
Experimental protocol: area under dose-response curve (viability, 1 nM-10 uM) (fraction (0-1)); higher = more sensitive
Assay context: 72 h
Please give the numeric answer without any surrounding text.

Below, 3 compounds whose answers are already recorded.
[
  {
    "Compound": "CC(=O)Nc1nc(C)c(-c2ccc(Cl)c(S(=O)(=O)NCCO)c2)s1",
    "area under dose-response curve": 0.139
  },
  {
    "Compound": "CS(=O)(=O)N1CCN(Cc2cc3nc(-c4cccc5[nH]ncc45)nc(N4CCOCC4)c3s2)CC1",
    "area under dose-response curve": 0.529
  },
  {
    "Compound": "CCN(CC)C(=S)SSC(=S)N(CC)CC",
    "area under dose-response curve": 0.19
  }
]

Consider now this further compound.
// field: area under dose-response curve; key: C=CCN(C)CCCCCCOc1ccc(C(=O)c2ccc(Br)cc2)c(F)c1.O=C(O)/C=C/C(=O)O [Ro 48-8071 fumarate] ; value = 0.0802

---

Test system: myeloid leukemia patient primary cells Pat.9
Experimental protocol: area under dose-response curve (viability, 1 nM-10 uM) (fraction (0-1)); higher = more sensitive
Assay context: 72 h
Reported endpoint: area under dose-response curve

Below, 5 compounds whose answers are already recorded.
[
  {
    "Compound": "CS(=O)(=O)N1CCN(Cc2cc3nc(-c4cccc5[nH]ncc45)nc(N4CCOCC4)c3s2)CC1 [Pictilisib]",
    "area under dose-response curve": 0.257
  },
  {
    "Compound": "Cc1c2c(=O)n(-c3ccccc3Cl)[nH]c2cc(=O)n1Cc1ccccn1",
    "area under dose-response curve": "< 0.0301"
  },
  {
    "Compound": "Cc1[nH]nc(C(F)(F)F)c1Cc1sc2c(c1C(=O)N1C[C@](C)(O)CO1)c(=O)n(C)c(=O)n2C(C)C [AZD3965]",
    "area under dose-response curve": "< 0.0301"
  },
  {
    "Compound": "C[C@]12C=CC(=O)C=C1CC[C@@H]1[C@@H]2[C@@H](O)C[C@@]2(C)[C@H]1CC[C@]2(O)C(=O)CO [Prednisolone]",
    "area under dose-response curve": "< 0.0301"
  },
  {
    "Compound": "CO[C@H]1C[C@@H]2CC[C@@H](C)[C@@](O)(O2)C(=O)C(=O)N2CCCC[C@H]2C(=O)O[C@H]([C@H](C)C[C@@H]2CC[C@@H](OCCO)[C@H](OC)C2)CC(=O)[C@H](C)/C=C(\\C)[C@@H](O)[C@@H](OC)C(=O)[C@H](C)C[C@H](C)/C=C/C=C/C=C/1C [Everolimus]",
    "area under dose-response curve": 0.319
  }
]

Consider now this further compound.
// field: area under dose-response curve; key: Cc1cc2c(C(C)C)c(O)c(O)c(C=O)c2c(O)c1-c1c(C)cc2c(C(C)C)c(O)c(O)c(C=O)c2c1O [Gossypol] ; value = 0.803

---

Reported cell viability is given for each of the following molecules.
System: MOLM-13
Experimental protocol: cell viability (% survival relative to DMSO control, bortezomib = 0%); higher = less cytotoxic
Assay context: 1 nM; 72 h
Give your result in % as a bare value.

// field: cell viability; key: CC/C=C\C[C@H]1C(=O)CC[C@@H]1CC(=O)OC [Methyl jasmonate] ; value = 108

// field: cell viability; key: N[C@@H](CC(=O)N1CCn2c(nnc2C(F)(F)F)C1)Cc1cc(F)c(F)cc1F [Sitagliptin] ; value = 95.5

// field: cell viability; key: CO[C@H]1C[C@@H]2CC[C@@H](C)[C@@](O)(O2)C(=O)C(=O)N2CCCC[C@H]2C(=O)O[C@H]([C@H](C)C[C@@H]2CC[C@@H](OC(=O)C(C)(CO)CO)[C@H](OC)C2)CC(=O)[C@H](C)/C=C(\C)[C@@H](O)[C@@H](OC)C(=O)[C@H](C)C[C@H](C)/C=C/C=C/C=C/1C [Temsirolimus] ; value = 78.5

// field: cell viability; key: Cn1cc(-c2ccncc2)c(-c2ccc(OCc3ccc4ccccc4n3)cc2)n1 ; value = 123

// field: cell viability; key: CC(C)(C)c1ccc(S(=O)(=O)NCc2ccc(C(=O)Nc3cccnc3)cc2)cc1 [STF-31] ; value = 111

// field: cell viability; key: C[C@]12C=CC(=O)C=C1CC[C@@H]1[C@@H]2[C@@H](O)C[C@@]2(C)[C@H]1CC[C@]2(O)C(=O)CO [Prednisolone] ; value = 94.3
